tested_system: VLA-4-IgG chimeric protein (Homo sapiens, UniProt P05556+P13612)
Sequence (P13612 34-1032, change not shown): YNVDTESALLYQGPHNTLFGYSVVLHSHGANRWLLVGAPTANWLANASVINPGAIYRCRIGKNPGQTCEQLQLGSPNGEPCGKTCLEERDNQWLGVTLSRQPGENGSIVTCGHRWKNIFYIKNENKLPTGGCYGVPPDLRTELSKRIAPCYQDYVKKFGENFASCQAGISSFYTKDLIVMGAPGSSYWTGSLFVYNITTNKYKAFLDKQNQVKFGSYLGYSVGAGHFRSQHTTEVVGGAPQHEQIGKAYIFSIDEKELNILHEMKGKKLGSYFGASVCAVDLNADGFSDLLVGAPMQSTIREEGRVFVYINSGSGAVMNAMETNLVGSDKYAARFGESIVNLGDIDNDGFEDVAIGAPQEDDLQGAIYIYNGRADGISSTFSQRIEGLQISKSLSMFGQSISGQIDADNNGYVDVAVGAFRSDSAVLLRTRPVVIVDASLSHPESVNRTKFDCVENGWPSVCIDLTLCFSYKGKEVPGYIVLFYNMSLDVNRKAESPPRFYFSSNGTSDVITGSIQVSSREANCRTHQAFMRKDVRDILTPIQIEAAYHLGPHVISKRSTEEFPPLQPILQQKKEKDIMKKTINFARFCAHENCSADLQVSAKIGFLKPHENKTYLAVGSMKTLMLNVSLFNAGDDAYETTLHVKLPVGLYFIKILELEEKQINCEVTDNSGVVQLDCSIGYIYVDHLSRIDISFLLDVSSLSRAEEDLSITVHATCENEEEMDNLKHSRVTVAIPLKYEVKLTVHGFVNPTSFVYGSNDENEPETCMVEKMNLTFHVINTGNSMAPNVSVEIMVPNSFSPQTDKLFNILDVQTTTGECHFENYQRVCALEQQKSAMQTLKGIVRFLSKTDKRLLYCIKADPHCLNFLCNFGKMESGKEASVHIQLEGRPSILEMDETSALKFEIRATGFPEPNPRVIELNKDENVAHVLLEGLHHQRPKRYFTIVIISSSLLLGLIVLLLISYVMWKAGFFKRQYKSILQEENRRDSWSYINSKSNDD
Sequence (P05556 21-798, change not shown): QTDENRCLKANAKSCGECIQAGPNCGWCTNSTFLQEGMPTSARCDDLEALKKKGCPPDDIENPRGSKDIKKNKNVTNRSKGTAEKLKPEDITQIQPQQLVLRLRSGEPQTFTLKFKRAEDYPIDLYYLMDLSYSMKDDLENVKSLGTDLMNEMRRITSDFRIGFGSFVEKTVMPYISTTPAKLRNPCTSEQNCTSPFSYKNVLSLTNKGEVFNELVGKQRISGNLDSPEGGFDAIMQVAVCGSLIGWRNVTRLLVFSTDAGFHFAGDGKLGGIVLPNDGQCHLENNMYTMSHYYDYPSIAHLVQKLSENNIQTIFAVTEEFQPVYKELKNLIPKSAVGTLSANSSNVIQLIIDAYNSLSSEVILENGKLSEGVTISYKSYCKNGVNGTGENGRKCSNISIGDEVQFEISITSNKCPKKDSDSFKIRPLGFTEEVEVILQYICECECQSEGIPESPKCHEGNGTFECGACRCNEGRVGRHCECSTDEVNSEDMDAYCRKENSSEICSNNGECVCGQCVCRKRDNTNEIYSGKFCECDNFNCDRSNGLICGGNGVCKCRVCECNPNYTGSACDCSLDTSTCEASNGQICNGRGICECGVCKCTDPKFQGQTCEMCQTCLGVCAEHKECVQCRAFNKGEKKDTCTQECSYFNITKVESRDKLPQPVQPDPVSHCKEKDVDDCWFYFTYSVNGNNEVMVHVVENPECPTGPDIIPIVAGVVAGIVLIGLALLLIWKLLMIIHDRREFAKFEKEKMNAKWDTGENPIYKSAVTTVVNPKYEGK
protocol_notes: Inhibition of binding of CS-1 peptide and VLA-4-IgG chimeric protein
study_conditions: binding of immobilized CS-1 peptide and VLA-4-IgG chimeric protein, absorbance at 490 nm
Bridge positions count the residues as written; N and C are the ends. Square brackets hold non-standard residues; d marks the D form. Peptide text beside a SMILES is read from it. 2Nal = N[C@@H](Cc1ccc2ccccc2c1)C(=O)O; 2Pal = N[C@@H](Cc1ccccn1)C(=O)O; Chg = N[C@H](C(=O)O)C1CCCCC1
measurement_kind: IC50 (nM)

CC[C@H](C)[C@@H]1NC(=O)[C@@H](N)CSSC[C@@H](C(=O)O)NC(=O)[C@H](CC(C)C)NC(=O)[C@H](Cc2ccc3ccccc3c2)NC(=O)[C@H](CC(=O)O)NC1=O [compound 34] (H-CID[2Nal]LC-OH; disulfide 1-6; N-terminus and C-terminus assumed) | 600

P = CC(C)C[C@@H]1NC(=O)[C@H](Cc2c[nH]cn2)NC(=O)[C@H](CC(=O)O)NC(=O)[C@H](C2CCCCC2)NC(=O)[C@@H](N)CSSC[C@@H](C(=O)O)NC1=O [compound 22] (H-C[Chg]DHLC-OH; disulfide 1-6)
Q = CC[C@H](C)[C@@H]1NC(=O)[C@@H](N)CSSC[C@@H](C(=O)O)NC(=O)[C@H](CC(C)C)NC(=O)[C@H](Cc2ccccn2)NC(=O)[C@H](CC(=O)O)NC1=O [compound 29] (H-CID[2Pal]LC-OH; disulfide 1-6)
Q. Compare P and Q by numeric IC50 and name the larger one. Mark your selection by writing its label.
A. Q
(Q: 500 nM, P: 120 nM)
